B1: library; numbered along this chain (parent)
chain: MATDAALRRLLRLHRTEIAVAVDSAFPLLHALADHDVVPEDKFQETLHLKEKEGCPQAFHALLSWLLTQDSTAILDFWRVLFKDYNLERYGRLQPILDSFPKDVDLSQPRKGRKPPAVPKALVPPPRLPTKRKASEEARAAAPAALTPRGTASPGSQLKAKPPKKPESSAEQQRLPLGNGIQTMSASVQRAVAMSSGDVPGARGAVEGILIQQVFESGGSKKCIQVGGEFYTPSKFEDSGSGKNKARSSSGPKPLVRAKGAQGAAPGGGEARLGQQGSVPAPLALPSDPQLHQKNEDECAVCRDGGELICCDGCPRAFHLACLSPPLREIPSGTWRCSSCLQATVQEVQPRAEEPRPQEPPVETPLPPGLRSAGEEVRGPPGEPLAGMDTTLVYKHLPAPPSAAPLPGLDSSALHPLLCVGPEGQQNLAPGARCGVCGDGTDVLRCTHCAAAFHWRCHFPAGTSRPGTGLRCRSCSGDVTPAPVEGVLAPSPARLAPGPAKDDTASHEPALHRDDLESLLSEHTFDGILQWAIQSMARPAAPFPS

variants of: B1; experiment: AIRE transcriptional activation functional score (insulin promoter-GFP; nonsense median 0, synonymous median 1) (normalised score); higher = higher AIRE activity (more reporter activation); settings: with insulin promoter-GFP reporter in HEK293
Response key: true (1) means AIRE transcriptional activation functional score >= 0.9; false (0) means AIRE transcriptional activation functional score < 0.9.

>  <mutation>
K259C

>  <category.label>
true (1)

$$$$
>  <mutation>
P252C

>  <category.label>
false (0)

$$$$
>  <mutation>
P381M

>  <category.label>
true (1)

$$$$
>  <mutation>
S545F

>  <category.label>
true (1)

$$$$
>  <mutation>
A5G

>  <category.label>
false (0)

$$$$
>  <mutation>
A258C

>  <category.label>
true (1)

$$$$
>  <mutation>
E307L

>  <category.label>
false (0)

$$$$
>  <mutation>
L75I

>  <category.label>
true (1)

$$$$
>  <mutation>
V214S

>  <category.label>
false (0)

$$$$
>  <mutation>
A271N

>  <category.label>
true (1)

$$$$
>  <mutation>
S324I

>  <category.label>
true (1)

$$$$
>  <mutation>
F318H

>  <category.label>
true (1)

$$$$
>  <mutation>
P509G

>  <category.label>
true (1)

$$$$
>  <mutation>
R89A

>  <category.label>
false (0)

$$$$
>  <mutation>
R378C

>  <category.label>
false (0)

$$$$
>  <mutation>
G218V

>  <category.label>
true (1)

$$$$
>  <mutation>
L511A

>  <category.label>
false (0)

$$$$
>  <mutation>
P125M

>  <category.label>
true (1)

$$$$
>  <mutation>
S217F

>  <category.label>
false (0)

$$$$
>  <mutation>
R473S

>  <category.label>
false (0)

$$$$
>  <mutation>
P176S

>  <category.label>
true (1)

$$$$
>  <mutation>
T480R

>  <category.label>
false (0)

$$$$
>  <mutation>
R149T

>  <category.label>
false (0)

$$$$
>  <mutation>
E137Y

>  <category.label>
true (1)

$$$$
>  <mutation>
A450D

>  <category.label>
true (1)

$$$$
>  <mutation>
E136K

>  <category.label>
false (0)

$$$$
>  <mutation>
Q426N

>  <category.label>
true (1)

$$$$
>  <mutation>
E167R

>  <category.label>
false (0)

$$$$
>  <mutation>
L308A

>  <category.label>
true (1)

$$$$
>  <mutation>
L444R

>  <category.label>
true (1)

$$$$
>  <mutation>
D41L

>  <category.label>
false (0)

$$$$
>  <mutation>
H35A

>  <category.label>
false (0)

$$$$
>  <mutation>
P357Y

>  <category.label>
true (1)

$$$$
>  <mutation>
A343S

>  <category.label>
true (1)

$$$$
>  <mutation>
R351F

>  <category.label>
true (1)

$$$$
>  <mutation>
V345P

>  <category.label>
true (1)

$$$$
>  <mutation>
I528V

>  <category.label>
false (0)

$$$$
>  <mutation>
P125H

>  <category.label>
true (1)

$$$$
>  <mutation>
A352E

>  <category.label>
true (1)

$$$$
>  <mutation>
K120I

>  <category.label>
true (1)

$$$$
>  <mutation>
L327M

>  <category.label>
true (1)

$$$$
>  <mutation>
N179T

>  <category.label>
true (1)

$$$$
>  <mutation>
L511V

>  <category.label>
false (0)

$$$$
>  <mutation>
I96K

>  <category.label>
false (0)

$$$$
>  <mutation>
C340V

>  <category.label>
true (1)

$$$$
>  <mutation>
R328M

>  <category.label>
true (1)

$$$$
>  <mutation>
Q346V

>  <category.label>
false (0)

$$$$
>  <mutation>
V226C

>  <category.label>
false (0)

$$$$
>  <mutation>
R190Q

>  <category.label>
true (1)

$$$$
>  <mutation>
A404Q

>  <category.label>
false (0)

$$$$
>  <mutation>
E298A

>  <category.label>
false (0)

$$$$
>  <mutation>
S220D

>  <category.label>
false (0)

$$$$
>  <mutation>
L511I

>  <category.label>
false (0)

$$$$
>  <mutation>
L10W

>  <category.label>
false (0)

$$$$
>  <mutation>
R465I

>  <category.label>
false (0)

$$$$
>  <mutation>
A482Q

>  <category.label>
false (0)

$$$$
>  <mutation>
D98P

>  <category.label>
false (0)

$$$$
>  <mutation>
I18S

>  <category.label>
false (0)

$$$$
>  <mutation>
P497R

>  <category.label>
false (0)

$$$$
>  <mutation>
H458Y

>  <category.label>
false (0)

$$$$
>  <mutation>
G408H

>  <category.label>
true (1)

$$$$
>  <mutation>
A21Y

>  <category.label>
false (0)

$$$$
>  <mutation>
C446W

>  <category.label>
false (0)

$$$$
>  <mutation>
E88S

>  <category.label>
false (0)

$$$$
>  <mutation>
A264Y

>  <category.label>
false (0)

$$$$
>  <mutation>
K165T

>  <category.label>
false (0)

$$$$
>  <mutation>
R92E

>  <category.label>
false (0)

$$$$
>  <mutation>
S168G

>  <category.label>
false (0)

$$$$
>  <mutation>
T334V

>  <category.label>
true (1)

$$$$
>  <mutation>
E270T

>  <category.label>
false (0)

$$$$
>  <mutation>
G91R

>  <category.label>
true (1)

$$$$
>  <mutation>
P286Q

>  <category.label>
true (1)

$$$$
>  <mutation>
P542H

>  <category.label>
false (0)

$$$$
>  <mutation>
P252W

>  <category.label>
false (0)

$$$$
>  <mutation>
T72A

>  <category.label>
true (1)

$$$$
>  <mutation>
K294C

>  <category.label>
true (1)

$$$$
>  <mutation>
D502R

>  <category.label>
false (0)

$$$$
>  <mutation>
S196N

>  <category.label>
true (1)

$$$$
>  <mutation>
F459I

>  <category.label>
false (0)

$$$$
>  <mutation>
G305W

>  <category.label>
false (0)

$$$$
>  <mutation>
T390L

>  <category.label>
true (1)

$$$$
>  <mutation>
Y394A

>  <category.label>
false (0)

$$$$
>  <mutation>
G431A

>  <category.label>
true (1)

$$$$
>  <mutation>
L409P

>  <category.label>
true (1)

$$$$
>  <mutation>
A19R

>  <category.label>
false (0)

$$$$
>  <mutation>
A140C

>  <category.label>
false (0)

$$$$
>  <mutation>
L291F

>  <category.label>
true (1)

$$$$
>  <mutation>
T447W

>  <category.label>
true (1)

$$$$
>  <mutation>
A493H

>  <category.label>
true (1)

$$$$
